Where do the numbers come from? From the supplement of paper PMC6897291.

System: U-2932
test.summary: growth inhibition by drug plus 177Lu-lilotomab satetraxetan (1 - RLU/untreated control) (fraction); higher = stronger inhibition
details: 10 nM; time (day): 6; 177Lu-lilotomab satetraxetan 1 ug/ml
Rule: criterion met for growth inhibition by drug plus 177Lu-lilotomab satetraxetan not less than 0.2, criterion not met for anything less.

q: Form field: growth inhibition by drug plus 177Lu-lilotomab satetraxetan at least 0.2? Entry: CNC(=O)c1ccc(N2C(=S)N(c3ccc(C#N)c(C(F)(F)F)c3)C(=O)C2(C)C)cc1F [MDV3100 (Enzalutamide)]
a: criterion not met

q: Form field: growth inhibition by drug plus 177Lu-lilotomab satetraxetan at least 0.2? Entry: CCN(CC)CCNC(=O)c1c(C)[nH]c(/C=C2\C(=O)Nc3ccc(F)cc32)c1C [Sunitinib Malate (Sutent)]
a: criterion not met

q: Form field: growth inhibition by drug plus 177Lu-lilotomab satetraxetan at least 0.2? Entry: Cc1csc(-c2nnc(Nc3ccc(Oc4ncccc4-c4ccnc(N)n4)cc3)c3ccccc23)c1
a: criterion met

q: Form field: growth inhibition by drug plus 177Lu-lilotomab satetraxetan at least 0.2? Entry: Nc1ccccc1NC(=O)c1ccc(CNC(=O)OCc2cccnc2)cc1
a: criterion met

q: Form field: growth inhibition by drug plus 177Lu-lilotomab satetraxetan at least 0.2? Entry: Cc1ccc(C(=O)N(CCCN)[C@@H](c2nc3cc(Cl)ccc3c(=O)n2Cc2ccccc2)C(C)C)cc1
a: criterion met

q: Form field: growth inhibition by drug plus 177Lu-lilotomab satetraxetan at least 0.2? Entry: C[C@]12CC[C@@H]3c4ccc(O)cc4C[C@@H](CCCCCCCCC[S+]([O-])CCCC(F)(F)C(F)(F)F)[C@H]3[C@@H]1CC[C@@H]2O (stereo partly drawn)
a: criterion not met

q: Form field: growth inhibition by drug plus 177Lu-lilotomab satetraxetan at least 0.2? Entry: Cc1ccc(C(=O)Nc2ccc(CN3CCN(C)CC3)c(C(F)(F)F)c2)cc1C#Cc1cnc2cccnn12
a: criterion not met
